# Measured Target: h15-LOX-2 (Homo sapiens (Human))
# Sequence (O15296 whole entry): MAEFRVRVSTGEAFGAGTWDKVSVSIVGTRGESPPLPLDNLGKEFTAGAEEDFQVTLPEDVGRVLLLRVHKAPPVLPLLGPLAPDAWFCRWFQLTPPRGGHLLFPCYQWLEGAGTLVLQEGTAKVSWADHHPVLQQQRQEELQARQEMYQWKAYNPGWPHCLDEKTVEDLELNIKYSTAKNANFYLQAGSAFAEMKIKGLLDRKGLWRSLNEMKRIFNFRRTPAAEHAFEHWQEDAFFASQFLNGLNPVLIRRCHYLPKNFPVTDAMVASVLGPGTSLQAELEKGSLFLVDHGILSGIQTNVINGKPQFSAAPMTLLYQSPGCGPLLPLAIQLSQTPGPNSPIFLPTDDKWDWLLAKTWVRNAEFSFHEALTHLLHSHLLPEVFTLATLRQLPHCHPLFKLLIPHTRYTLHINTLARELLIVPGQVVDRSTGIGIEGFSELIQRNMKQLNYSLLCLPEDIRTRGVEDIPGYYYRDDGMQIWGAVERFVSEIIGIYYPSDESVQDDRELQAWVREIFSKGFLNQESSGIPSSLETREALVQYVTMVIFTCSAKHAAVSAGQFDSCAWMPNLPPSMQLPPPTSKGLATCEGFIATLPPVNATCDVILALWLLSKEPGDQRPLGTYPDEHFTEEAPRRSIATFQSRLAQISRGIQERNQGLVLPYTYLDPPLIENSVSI
# Assay Notes: Lipoxygenase UV-Vis-based IC50 assay, h15-LOX-2
# Condition Description: read-out: IC50 (μM) (± SD (μM)); h15-LOX-2, 10 μM AA, duplicate
Quantity: IC50 (µM)
Entry rule: numbers only, all in µM.

**Query** Hello, please tell me recorded IC50 for this one: CCc1ccc(CSc2nccn2-c2ccccc2)cc1 [Compound 107]
**Result** 0.87

**Query** Hello, please tell me recorded IC50 for this one: CSc1ccc(CSc2nccn2-c2ccccc2)cc1 [Compound 103]
**Result** 2.3

**Query** Hello, please tell me recorded IC50 for this one: FC(F)(F)c1ccc(CSc2nccn2-c2ccccc2)cc1 [Compound 105]
**Result** 0.34

* * *

# Measured Target: h15-LOX-2 (Homo sapiens (Human))
# Assay Notes: Lipoxygenase UV-Vis-based IC50 assay, h15-LOX-2
# Condition Description: read-out: IC50 (μM) (± SD); h15-LOX-2 SAR study, 10 μM AA, 0.01% TritonX-100
Quantity: IC50

**Query** Report IC50 from h15-LOX-2 (Homo sapiens (Human)) testing of `O=C(CSc1nccn1-c1ccccc1)NO`
**Result** > 100 µM

**Query** Report IC50 from h15-LOX-2 (Homo sapiens (Human)) testing of `c1ccc(CCSc2nccn2-c2ccccc2)cc1`
**Result** > 25 µM

**Query** Report IC50 from h15-LOX-2 (Homo sapiens (Human)) testing of `Cc1ccccc1CSc1nccn1-c1ccccc1`
**Result** > 50 µM

**Query** Report IC50 from h15-LOX-2 (Homo sapiens (Human)) testing of `O=C(CSc1nccn1-c1ccccc1)NCc1ccc(F)cc1`
**Result** > 100 µM

**Query** Report IC50 from h15-LOX-2 (Homo sapiens (Human)) testing of `N#Cc1cc(CSc2nccn2-c2ccccc2)ccc1F`
**Result** > 100 µM

**Query** Report IC50 from h15-LOX-2 (Homo sapiens (Human)) testing of `Cc1cccc(-n2ccnc2SCC(=O)Nc2cc(C(F)(F)F)ccc2Cl)c1`
**Result** > 100 µM

**Query** Report IC50 from h15-LOX-2 (Homo sapiens (Human)) testing of `Cc1ccc(NC(=O)CSc2nccn2-c2ccccc2)cc1`
**Result** > 50 µM

**Query** Report IC50 from h15-LOX-2 (Homo sapiens (Human)) testing of `Cc1cccc(-n2ccnc2SCC(=O)O)c1C`
**Result** > 100 µM

**Query** Report IC50 from h15-LOX-2 (Homo sapiens (Human)) testing of `CC(C)c1ccc(-n2ccnc2SCC(=O)O)cc1`
**Result** > 100 µM

**Query** Report IC50 from h15-LOX-2 (Homo sapiens (Human)) testing of `FC(F)(F)c1ccc(CSc2nccn2-c2ccccc2)cc1`
**Result** 0.34 µM

**Query** Report IC50 from h15-LOX-2 (Homo sapiens (Human)) testing of `Cc1cc(C)cc(-n2ccnc2SCC(=O)O)c1`
**Result** > 100 µM

**Query** Report IC50 from h15-LOX-2 (Homo sapiens (Human)) testing of `CSc1ccc(CSc2nccn2-c2ccccc2)cc1`
**Result** 2.3 µM

**Query** Report IC50 from h15-LOX-2 (Homo sapiens (Human)) testing of `Cc1ccc(C(=O)CSc2nccn2-c2ccccc2)cc1`
**Result** > 25 µM

**Query** Report IC50 from h15-LOX-2 (Homo sapiens (Human)) testing of `O=C(O)CCCSc1nccn1-c1ccccc1`
**Result** > 100 µM

**Query** Report IC50 from h15-LOX-2 (Homo sapiens (Human)) testing of `O=C(CSc1nccn1-c1ccccc1)c1ccc(Cl)cc1`
**Result** > 25 µM

**Query** Report IC50 from h15-LOX-2 (Homo sapiens (Human)) testing of `Cc1ccccc1-n1ccnc1SCC(=O)O`
**Result** > 100 µM

**Query** Report IC50 from h15-LOX-2 (Homo sapiens (Human)) testing of `CCc1ccc(CSc2nccn2-c2ccccc2)cc1`
**Result** 0.87 µM

**Query** Report IC50 from h15-LOX-2 (Homo sapiens (Human)) testing of `Cc1ccc(-n2ccnc2SCc2ccc(C(F)(F)F)cc2)cc1`
**Result** 0.27 µM

**Query** Report IC50 from h15-LOX-2 (Homo sapiens (Human)) testing of `Cc1ccc(-n2ccnc2SCC(=O)O)c(C)c1`
**Result** > 50 µM

**Query** Report IC50 from h15-LOX-2 (Homo sapiens (Human)) testing of `Clc1cccc(CSc2nccn2-c2ccccc2)c1`
**Result** > 50 µM

**Query** Report IC50 from h15-LOX-2 (Homo sapiens (Human)) testing of `O=C(CSc1nccn1-c1ccccc1)c1ccc(Br)cc1`
**Result** > 25 µM

* * *

# Measured Target: UniProt O15296
# Assay Notes: Lipoxygenase UV-Vis-based IC50 assay, h15-LOX-2
# Condition Description: read-out: % Inhibition at 20 μM
Quantity: inhibition at 20 µM (%)
Entry rule: numbers only, all in %.

**Query** Report inhibition at 20 µM from UniProt O15296 testing of Cc1cc(C)cc(-n2ccnc2SCC(=O)O)c1 [Compound 120]
**Result** 7

**Query** Report inhibition at 20 µM from UniProt O15296 testing of CC(C)c1ccc(-n2ccnc2SCC(=O)O)cc1 [Compound 123]
**Result** 13

**Query** Report inhibition at 20 µM from UniProt O15296 testing of O=C(CSc1nccn1-c1ccccc1)c1ccc(Br)cc1 [Compound 115]
**Result** 51

**Query** Report inhibition at 20 µM from UniProt O15296 testing of O=C(CSc1nccn1-c1ccccc1)c1ccc(Cl)cc1 [Compound 114]
**Result** 62

**Query** Report inhibition at 20 µM from UniProt O15296 testing of O=C(O)CCCSc1nccn1-c1ccccc1 [Compound 112]
**Result** 8

**Query** Report inhibition at 20 µM from UniProt O15296 testing of Cc1ccccc1-n1ccnc1SCC(=O)O [Compound 122]
**Result** 8

**Query** Report inhibition at 20 µM from UniProt O15296 testing of Cc1ccc(-n2ccnc2SCC(=O)O)c(C)c1 [Compound 125]
**Result** 16

**Query** Report inhibition at 20 µM from UniProt O15296 testing of CSc1ccc(CSc2nccn2-c2ccccc2)cc1 [Compound 103]
**Result** 84

**Query** Report inhibition at 20 µM from UniProt O15296 testing of Cc1cccc(-n2ccnc2SCC(=O)Nc2ccccc2C(F)(F)F)c1 [Compound 126]
**Result** 4

**Query** Report inhibition at 20 µM from UniProt O15296 testing of Cc1cccc(-n2ccnc2SCC(=O)O)c1C [Compound 121]
**Result** 7

**Query** Report inhibition at 20 µM from UniProt O15296 testing of c1ccc(CCSc2nccn2-c2ccccc2)cc1 [Compound 110]
**Result** 68

**Query** Report inhibition at 20 µM from UniProt O15296 testing of FC(F)(F)c1ccc(CSc2nccn2-c2ccccc2)cc1 [Compound 105]
**Result** 100

**Query** Report inhibition at 20 µM from UniProt O15296 testing of Cc1cccc(-n2ccnc2SCC(=O)Nc2cc(C(F)(F)F)ccc2Cl)c1 [Compound 127]
**Result** 13

**Query** Report inhibition at 20 µM from UniProt O15296 testing of CCc1ccc(CSc2nccn2-c2ccccc2)cc1 [Compound 107]
**Result** 98

**Query** Report inhibition at 20 µM from UniProt O15296 testing of Cc1ccccc1CSc1nccn1-c1ccccc1 [Compound 108]
**Result** 31

**Query** Report inhibition at 20 µM from UniProt O15296 testing of O=C(CSc1nccn1-c1ccccc1)NCc1ccc(F)cc1 [Compound 117]
**Result** 8

**Query** Report inhibition at 20 µM from UniProt O15296 testing of Cc1ccc(-n2ccnc2SCC(=O)O)cc1C [Compound 124]
**Result** 14

**Query** Report inhibition at 20 µM from UniProt O15296 testing of N#Cc1cc(CSc2nccn2-c2ccccc2)ccc1F [Compound 104]
**Result** 23

**Query** Report inhibition at 20 µM from UniProt O15296 testing of Cc1cc(C)cc(NC(=O)CSc2nccn2-c2ccccc2)c1 [Compound 116]
**Result** 0

**Query** Report inhibition at 20 µM from UniProt O15296 testing of Cc1ccc(-n2ccnc2SCc2ccc(C(F)(F)F)cc2)cc1 [Compound 101]
**Result** 97

**Query** Report inhibition at 20 µM from UniProt O15296 testing of Cc1ccc(C)c(-n2ccnc2SCC(=O)O)c1 [Compound 119]
**Result** 4
